# Test system: A498
# test-summary: NCI tumour cell line growth inhibition, 48 h
Activity calls are given as the source filed them. Rule as the data show it: active = GI50 up to about 1.1 µM and inactive = higher.
Pick from active, inactive when you respond.

Can you look up the reported call for "N#CCCN(CCC#N)c1ccc(/C=N\c2ccc(F)cc2)cc1" for me? inactive

Called result for "COc1ccc2nc3ccccc3c(NCCN(C)CCCl)c2c1" active

Please share the test call associated with "Cc1nc(SCC(=O)Nc2ccccc2)c2sc(=S)n(-c3ccccc3)c2n1" . inactive

Assay result, entry "Cc1c(C(=O)/C=C/c2ccc(Cl)cc2)[n+]([O-])c2ccccc2[n+]1[O-]" — outcome? inactive

# lookup: test call for "OC(NN=C1CCCC1)(C(F)(F)Cl)C(F)(F)Cl" inactive

// return assay outcome for "CN(C)C(=S)N/N=C(\C(=N/NC(=S)N(C)C)c1ccccn1)c1ccccn1" inactive

Test call for this compound, please: "N#C/C(c1nc2ccccc2[nH]1)=c1\s/c(=C/c2ccc(Cl)cc2)c(=O)n1-c1ccccc1" inactive

Fill in: this test's call for COC(=O)C(Cc1ccccc1)NC(=O)C(CCC(=O)OCc1ccccc1)NC(=O)OC(C)(C)C (stereo unspecified) is ___ inactive

Hi, sorry to bother you, what did the test record for "CCOc1ccc(/N=N/S(=O)(=O)O)cc1" ? inactive

Call for entry O=C1CC2SC(COCc3ccccc3)(CCN2Cc2ccccc2)C1 (stereo unspecified) : inactive

Hey, what did the test say about "Cc1ccc(S(=O)(=O)Nn2c(O)c(C#N)c(-c3ccc(N(C)C)cc3)c(C#N)c2=O)cc1" ? inactive

Record request — test call for "CCCN1CCC(=O)N(CCC(F)(F)C(F)(F)C(F)(F)C(F)(F)C(F)(F)C(F)(F)F)C1=S" inactive

Recorded call for "O=C1c2[nH]c3ccc(Br)cc3c2CCN1Cc1ccc(Cl)cc1" ? inactive

Kindly provide the recorded test outcome for the following compound: "CN(C)CCC(/C=C/c1ccccc1)=N\Nc1ccc(Cl)cc1Cl" inactive

Given "O=C(CC1=Nc2nnc(-c3nnc4n3C(=O)C(CC(=O)c3cccnc3)=N4)n2C1=O)c1cccnc1" , state the outcome it received in this test. inactive

What is the recorded call for this compound in the test? "CC1(C)O[C@@H]2[C@@H]3OC(=O)C[C@@H]3[C@@H](COCc3ccccc3)[C@@H]2O1" inactive

Which outcome did this test record for the compound "Cc1ccc(NC(=O)/C(Cc2cc(=O)oc3cc(O)ccc23)=N\NC(C)(C)C)cc1C" ? inactive

Could you kindly confirm the outcome this assay logged for "COC1=CC(=O)c2c(c(O)c3oc4cc(OC)cc(C)c4c(=O)c3c2O)C1=O" ? inactive

// return assay outcome for "CCN(CC)CCn1c(=O)c2c(C)c3oc4ccccc4oc3c(C)c2c1=O" inactive

What was the test verdict on "CN(NC1=NCCO1)c1ccc2ccccc2c1" ? inactive

So what was the verdict on "COc1cc(/C=C/C(=O)O)ccc1OS(=O)(=O)O" in this test? inactive
